B1: Cytoplasmic polyadenylation element-binding protein 2, residues 513 to 575; numbered along this chain, Q7Z5Q1 (parent)
chain: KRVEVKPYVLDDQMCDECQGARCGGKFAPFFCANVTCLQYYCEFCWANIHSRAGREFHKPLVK

Variants of: B1
Assay: abundance fitness (aPCA) (normalised: wild type 0, dead -1); higher = more abundant; growth selection in yeast, the domain comes from the species named
Settings: Homo sapiens
Use criterion met when the recorded abundance fitness is no lower than -0.2; use criterion not met when it is lower.

INSERT INTO measurements (sequence_entry, assigned_class) VALUES
  ('KRVEVKPYVLDDQMCDECQGARCGGKFAPFFCANVTCEQYYCEFCWANIHSRAGREFHKPLVK [L38E]', 'criterion met'),
  ('KRVEVKPYVLDDQMCDECQGARCVGKFAPFFCANVTCLQYYCEFCWANIHSRAGREFHKPLVK [G24V]', 'criterion met'),
  ('KRVEVKPYVLDDQMCDECQGARCGGKFAPFFCANVTCLQYYCEFCWANIHSRAGQEFHKPLVK [R55Q]', 'criterion met'),
  ('KRVEVKPYVLDDQMCDECQGARCGGKFAPFFFANVTCLQYYCEFCWANIHSRAGREFHKPLVK [C32F]', 'criterion not met'),
  ('KRVEVKPYRLDDQMCDECQGARCGGKFAPFFCANVTCLQYYCEFCWANIHSRAGREFHKPLVK [V9R]', 'criterion met'),
  ('KRVEVFPYVLDDQMCDECQGARCGGKFAPFFCANVTCLQYYCEFCWANIHSRAGREFHKPLVK [K6F]', 'criterion not met'),
  ('KRVEVKPYVLDDQMCDECQGARCGGKFAPFFCANVTCLQCYCEFCWANIHSRAGREFHKPLVK [Y40C]', 'criterion not met'),
  ('KRVEVKPYVLDDQMCDECQGARCGGKFAPFFCANVTCLQYYCEFCWANIHSRAGRENHKPLVK [F57N]', 'criterion met');

**Query** Hi team, for KRVEVKPYVLDDQMCDECQGARCGGKFAPFFCANVTCLQYYCEFCWWNIHSRAGREFHKPLVK [A47W] , is the recorded abundance fitness at or above -0.2?
**Result** criterion met

**Query** Hi team, for KRVEVKPYVLVDQMCDECQGARCGGKFAPFFCANVTCLQYYCEFCWANIHSRAGREFHKPLVK [D11V] , is the recorded abundance fitness at or above -0.2?
**Result** criterion met

**Query** Hi team, for KRVEVKPYVLTDQMCDECQGARCGGKFAPFFCANVTCLQYYCEFCWANIHSRAGREFHKPLVK [D11T] , is the recorded abundance fitness at or above -0.2?
**Result** criterion not met

**Query** Hi team, for KRVEVKPYVLDDQMCDECQGARCGGKFAPFFCANVTCLQYYCEFCWATIHSRAGREFHKPLVK [N48T] , is the recorded abundance fitness at or above -0.2?
**Result** criterion met

**Query** Hi team, for KRVEVKPYVLDDQMCDECQGARCGGKFAPFFCANVTCLQYYCEFCWANISSRAGREFHKPLVK [H50S] , is the recorded abundance fitness at or above -0.2?
**Result** criterion not met

**Query** Hi team, for KRVEVKPYVLDDQMCDECQGARCGGKTAPFFCANVTCLQYYCEFCWANIHSRAGREFHKPLVK [F27T] , is the recorded abundance fitness at or above -0.2?
**Result** criterion met

**Query** Hi team, for KRVEVKPYVLDDQMCDECQGARCGGKFAPLFCANVTCLQYYCEFCWANIHSRAGREFHKPLVK [F30L] , is the recorded abundance fitness at or above -0.2?
**Result** criterion met

meta.source: the Human Domainome abundance scans (Beltran et al. 2025)
